- SYSTEM UNDER TEST: Kras and SOS1 (biotin-tagged human Kras loaded with GDP, His-tagged human SOS1) (Homo sapiens, UniProt P01116, G12D)
- Construct: made in house; host or cells: E. coli (stated for Kras only)
- Sequence (P01116 1-188 isoform P01116-2 G12D): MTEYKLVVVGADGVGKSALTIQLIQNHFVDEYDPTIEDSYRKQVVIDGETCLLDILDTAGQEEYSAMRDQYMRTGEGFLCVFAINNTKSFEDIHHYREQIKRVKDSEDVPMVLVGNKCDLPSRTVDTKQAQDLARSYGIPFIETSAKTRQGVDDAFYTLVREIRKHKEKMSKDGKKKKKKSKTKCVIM
- METHOD NOTES: Protein-protein interaction inhibition between Kras and SOS1 (KrasGl2D-SOS PPI) using AlphaScreen
- Format: binding
- MEASUREMENT CONDITIONS: AlphaScreen; biotin-tagged human Kras loaded with GDP, His-tagged human SOS1; read-out: KRAS G12D-SOS PPI IC50
- Protocol: Protein-Protein Interaction Inhibition Between Kras and SOS1 (KrasGl2D-SOS PPI) Using AlphaScreen Protein-protein interaction inhibition (PPI) between Kras and SOS1 was measured by energy transfer from nickel-conjugated donor beads to streptavidin-conjugated acceptor beads using biotin-tagged human Kras expressed in E. coli and loaded with GDP after purification and His-tagged human SOS1 enzyme. […]
Starred links: 1 amine or outer side, 2 acyl side, 3 side chain; linkers in the order of their positions; H or OH if unused. Positions of bridges follow the written chain, without caps; N, C: chain ends. Non-standard residues stand in square brackets, D forms with d. Residues, ends and D or L forms follow the SMILES beside them. *: point of attachment. hPhe(3-Cl-4-CF3) = N[C@@H](CCc1ccc(C(F)(F)F)c(Cl)c1)C(=O)O; hPhe(3-F,4-CF3) = N[C@@H](CCc1ccc(C(F)(F)F)c(F)c1)C(=O)O; NMePhe(4-CF3) = CN[C@@H](Cc1ccc(C(F)(F)F)cc1)C(=O)O; NMePhe(4-Cl) = CN[C@@H](Cc1ccc(Cl)cc1)C(=O)O; NMeMet(O2) = CN[C@@H](CCS(C)(=O)=O)C(=O)O; NMedβ3hAla = C[C@H](CC(=O)[*:2])N(C)[*:1]; Phe(3-I) = N[C@@H](Cc1cccc(I)c1)C(=O)O; X43 = O=C(CN(c1ccc(Cl)cc1)[*:1])[*:2]; NMeGly(cBu) = CN[C@H](C(=O)O)C1CCC1; NMeCha = CN[C@@H](CC1CCCCC1)C(=O)O; NMeChg = CN[C@H](C(=O)O)C1CCCCC1; NMeD = CN[C@@H](CC(=O)O)C(=O)O; NMeL = CN[C@@H](CC(C)C)C(=O)O; NMeV = CN[C@H](C(=O)O)C(C)C; NMeA = CN[C@@H](C)C(=O)O; NMeAib = CNC(C)(C)C(=O)O; Piperidide = C1CCN(*)CC1; Pra = C#CC[C@H](N)C(=O)O; Ac5c = NC1(C(=O)O)CCCC1; Aze = O=C(O)[C@@H]1CCN1; X1 = FC1(F)CN(*)CC1(F)F; Sar = CNCC(=O)O
MEASURED ENDPOINT: IC50 (nM)
The reply should be a number in nM, with the unit left off.

The reported IC50 of the molecule CC[C@H](C)[C@@H]1NC(=O)[C@H](CC(C)C)N(C)C(=O)C[C@@H](C(=O)N2CCCCC2)N(C)C(=O)[C@H](C(C)C)N(C)C(=O)C2(CCCC2)NC(=O)[C@@H]2CCCN2C(=O)[C@H](CCc2ccc(C(F)(F)F)c(F)c2)NC(=O)CN(C)C(=O)[C@H](Cc2ccc(Cl)cc2)N(C)C(=O)CN(C)C(=O)CN(C)C1=O [Compound 229] ([NMeL]I[Sar][Sar][NMePhe(4-Cl)][Sar][hPhe(3-F,4-CF3)]P[Ac5c][NMeV][NMeD]-Piperidide; lactam N-11) was 6.7

Lookup result for CC[C@H](C)[C@@H]1NC(=O)[C@H](CC(C)C)N(C)C(=O)C[C@@H](C(=O)N2CC(F)(F)C(F)(F)C2)N(C)C(=O)[C@H](C2CCCCC2)N(C)C(=O)C2(CCCC2)NC(=O)[C@@H]2CCCN2C(=O)[C@H](CCc2ccc(C(F)(F)F)c(Cl)c2)NC(=O)CN(C)C(=O)[C@H](CC2CCCCC2)N(C)C(=O)CN(C)C(=O)CN(C)C1=O [Compound 1207] ([NMeL]I[Sar][Sar][NMeCha][Sar][hPhe(3-Cl-4-CF3)]P[Ac5c][NMeChg][NMeD]-X1; lactam N-11) ; measured IC50: 2.7

Input CC[C@H](C)[C@@H]1NC(=O)[C@H](C)N(C)C(=O)C[C@@H](C(=O)N2CCCCC2)N(C)C(=O)[C@H](C2CCC2)N(C)C(=O)C(C)(C)N(C)C(=O)CN(c2ccc(Cl)cc2)C(=O)[C@H](CCc2ccc(C(F)(F)F)c(Cl)c2)NC(=O)CN(C)C(=O)[C@H](C2CCC2)N(C)C(=O)[C@@H]2CCN2C(=O)[C@H](C)N(C)C1=O [Compound 2147] ([NMeA]I[NMeA][Aze][NMeGly(cBu)][Sar][hPhe(3-Cl-4-CF3)][X43][NMeAib][NMeGly(cBu)][NMeD]-Piperidide; lactam N-11) . Output IC50: 8

Data point: CC[C@H](C)[C@@H]1NC(=O)[C@H](CC(C)C)N(C)C(=O)C[C@@H](C(=O)N2CCCCC2)N(C)C(=O)[C@H](CCS(C)(=O)=O)N(C)C(=O)C2(CCCC2)NC(=O)[C@@H]2CCCN2C(=O)[C@H](CCc2ccc(C(F)(F)F)c(Cl)c2)NC(=O)CN(C)C(=O)[C@H](CC2CCCCC2)N(C)C(=O)CN(C)C(=O)CN(C)C1=O [Compound 162] ([NMeL]I[Sar][Sar][NMeCha][Sar][hPhe(3-Cl-4-CF3)]P[Ac5c][NMeMet(O2)][NMeD]-Piperidide; lactam N-11) ; IC50 = 230

Lab note: C#CC[C@@H]1NC(=O)[C@H](Cc2cccc(I)c2)NC(=O)CN(C)C(=O)[C@H](Cc2ccc(C(F)(F)F)cc2)N(C)C(=O)[C@@H]2CCN2C(=O)CN(C)C(=O)[C@H]([C@@H](C)CC)NC(=O)[C@H](CC(C)C)N(C)C(=O)C[C@@H](C)N(C)C(=O)[C@H](CC(C)C)NC(=O)C(C)(C)N(C)C1=O [Compound 1427] (cyclo([Aze][NMePhe(4-CF3)][Sar][Phe(3-I)][Pra][NMeAib]L[NMedβ3hAla][NMeL]I[Sar])) gave IC50 of 250
